# S/N values compiled below
# measurement target: mouse MSR1 on RAW264.7 cells (mouse) (UniProt P30204)
# Sequence (P30204 whole entry): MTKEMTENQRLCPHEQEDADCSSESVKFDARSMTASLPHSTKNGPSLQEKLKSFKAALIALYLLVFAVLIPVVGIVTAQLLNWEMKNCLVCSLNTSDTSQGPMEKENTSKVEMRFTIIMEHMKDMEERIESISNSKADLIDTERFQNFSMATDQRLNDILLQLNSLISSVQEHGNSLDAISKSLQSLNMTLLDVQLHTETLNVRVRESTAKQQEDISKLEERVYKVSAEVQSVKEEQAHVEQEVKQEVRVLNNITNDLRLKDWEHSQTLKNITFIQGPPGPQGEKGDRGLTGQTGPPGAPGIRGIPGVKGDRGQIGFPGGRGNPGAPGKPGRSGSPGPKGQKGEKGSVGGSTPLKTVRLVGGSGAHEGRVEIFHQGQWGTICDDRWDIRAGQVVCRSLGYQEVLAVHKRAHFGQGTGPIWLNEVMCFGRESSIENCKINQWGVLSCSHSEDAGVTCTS
# method summary: flow cytometry, RAW264.7 cells, 10 ug/mL
Simply state the number, no unit and no words.

Below are worked cases with known answers.
Give its S/N value. Item: H1H27754P-N297Q (antibody, human IgG1, V domains shown) VH: EVQLVESGGGLVQPGGSLRLSCAASGFTFRTYAMTWVRQAPGKGLDWVSAITGDGGNTYYADSVKGRFTISRDNSKNTLYLQMNSLRAEDTAIYYCAKDQRFSFALYYFDYWGQGTLVTVSS VL: DIQMTQSPSSVSASVGDRVTITCRASQGISSWLAWYQQKPGNAPKLLIYAAFSLQSGVPSRFSGSGSGTDFTLTISSLQPEDFATYYCQQANNFPWTFGQGTKVEIKR 1

Can you check H1H21234N-N297Q (antibody, human IgG1, V domains shown) VH: QVQLQESGPGLVKPSETLSLTCTVTGGSISRNYWSWIRQPPGKGLEWIGYIYYSGSIDYNPSLKSRVTISVDTSKNQFSLKLSSMTAADTAVYYCARDRWNWKYGMDVWGQGTTVIVSS VL: EIVLTQSPGTLSLSPGERATLSCRASQTVRNNYLAWYHQKPGQAPRLLIYGASSRATGIPDRFSGSGSGTDFTLTISRLEPEDFTVYYCHQYGNSPWTFGQGTKMEIKR next? 3

More entries:
Give its S/N value. Item: H1H27734P-N297Q (antibody, human IgG1, V domains shown) VH: EVQLVESRGGLVQPGGSLRLSCAASGFTFSSYAMSWVRQAPGKGLEWVSAISGSGGSTFYADSVKGRFTISRDNSKNTVYLQMNSLRAEDTAVYYCAKALVLRFLEWLGDYWGQGTLVTVSS VL: DIQMTQSPSTLSASVGDRVTITCRASQSISSWLAWFQQKPGKAPKLLIYKASSLESGVPSRFSGSGSGTEFTLTISSLQPDDFATYYCQQYKSYWTFGQGTKVEIKR 1
